target: T1, human VEGF-A residues 27-191 of Accession #AAV38412 (human, UniProt P15692 27-191); assay: BIAcore SPR
T1 construct: range 27-191
T1 sequence (P15692 other isoform, or with tags, fused parts or gaps limits assumed): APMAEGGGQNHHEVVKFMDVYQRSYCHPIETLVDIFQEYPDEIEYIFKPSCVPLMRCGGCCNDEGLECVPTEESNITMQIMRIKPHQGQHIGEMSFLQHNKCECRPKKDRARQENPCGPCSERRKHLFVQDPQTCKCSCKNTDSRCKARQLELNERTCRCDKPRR
Record form. Attribute: Kd. Fill in for each entry.
Give the value in pM but do not write pM after it.

Data request: Data request, read-out Kd, for N31 Y (anti-VEGF IgG) (antibody, V domains shown, copies: 2 + 2) VH: EVQLVESGGGLVQPGGSLRLSCAASGYTFTYYGMNWVRQAPGKGLEWVGWINTYTGEPTYAADFKRRFTFSLDTSKSTAYLQMNSLRAEDTAVYYCAKYPHYYGSSHWYFDVWGQGTLVTVSS VL: DIQMTQSPSSLSASVGDRVTITCSASQDISNYLNWYQQKPGKAPKVLIYFTSSLHSGVPSRFSGSGSGTDFTLTISSLQPEDFATYYCQQYSTVPWTFGQGTKVEIK
Data returned: 77

Data request: For T30 W (anti-VEGF IgG) (antibody, V domains shown, copies: 2 + 2) VH: EVQLVESGGGLVQPGGSLRLSCAASGYTFWNYGMNWVRQAPGKGLEWVGWINTYTGEPTYAADFKRRFTFSLDTSKSTAYLQMNSLRAEDTAVYYCAKYPHYYGSSHWYFDVWGQGTLVTVSS VL: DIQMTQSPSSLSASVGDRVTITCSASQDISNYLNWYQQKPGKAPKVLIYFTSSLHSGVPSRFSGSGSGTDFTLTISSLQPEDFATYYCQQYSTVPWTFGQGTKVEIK , what is its reported Kd?
Data returned: 309

Data request: Kd lookup needed for T30 N (anti-VEGF IgG) (antibody, V domains shown, copies: 2 + 2) VH: EVQLVESGGGLVQPGGSLRLSCAASGYTFNNYGMNWVRQAPGKGLEWVGWINTYTGEPTYAADFKRRFTFSLDTSKSTAYLQMNSLRAEDTAVYYCAKYPHYYGSSHWYFDVWGQGTLVTVSS VL: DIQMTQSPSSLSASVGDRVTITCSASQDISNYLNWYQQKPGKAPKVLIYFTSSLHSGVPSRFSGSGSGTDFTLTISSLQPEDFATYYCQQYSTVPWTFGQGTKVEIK , thanks.
Data returned: 303
